Where these numbers come from: a melting point compilation (Tetko et al.; mined from patent text by program, amines drawn as free bases though some values may be those of a salt)

# key: entry, value: melting point
measure.name: melting point

INSERT INTO results (molecule, measure_name, assay_value) VALUES
  ('ON=C(c1ccc(F)cc1)c1cccc2nc(N[C@@H]3CCc4ccccc43)ccc12', 'melting point', '184 °C'),
  ('COc1c(F)c(F)c(-c2c3ccccc3c(-c3ccccc3)c3ccccc23)c(F)c1F', 'melting point', '153 to 154 °C'),
  ('CCOC(=O)c1cc(N(C)C)ncn1', 'melting point', '40 to 42 °C'),
  ('CCOC(=O)c1c2ccc(CC(=O)NOCCCN(CC)CC)ccc-2c(C(=O)OCC)c1N', 'melting point', '125 to 127 °C'),
  ('COc1ccc(Nc2ccc(Nc3ncnc4cc(-c5ccc(OC)nc5)sc34)cc2)cc1', 'melting point', '149 to 159 °C'),
  ('Cc1ccc(-c2ccc(Cl)c(C(=O)NCC34CC5CC(CC(C5)C3)C4)c2)c(C(=O)O)c1', 'melting point', '214 to 216 °C'),
  ('O=C(O)CC(c1ccccc1)N1CC(NC(=O)C(=NO)c2ccccc2)C1=O (centres undefined)', 'melting point', '157 to 158 °C'),
  ('O=C(CCl)Nc1cccc(NC(=O)Nc2ccc(N(CCCl)CCCl)cc2)c1', 'melting point', '232 to 233 °C'),
  ('C#CC1(O)C=CC2C3CCC4=CC(=O)CC(OC(C)=O)C4C3CCC21CC (centres undefined)', 'melting point', '123 to 126 °C');
